target: human PCSK9 (proprotein convertase subtilisin kexin type 9) (human, UniProt Q8NBP7 31-692); assay: cell-based or functional assay
Sequence (Q8NBP7 31-692 limits assumed): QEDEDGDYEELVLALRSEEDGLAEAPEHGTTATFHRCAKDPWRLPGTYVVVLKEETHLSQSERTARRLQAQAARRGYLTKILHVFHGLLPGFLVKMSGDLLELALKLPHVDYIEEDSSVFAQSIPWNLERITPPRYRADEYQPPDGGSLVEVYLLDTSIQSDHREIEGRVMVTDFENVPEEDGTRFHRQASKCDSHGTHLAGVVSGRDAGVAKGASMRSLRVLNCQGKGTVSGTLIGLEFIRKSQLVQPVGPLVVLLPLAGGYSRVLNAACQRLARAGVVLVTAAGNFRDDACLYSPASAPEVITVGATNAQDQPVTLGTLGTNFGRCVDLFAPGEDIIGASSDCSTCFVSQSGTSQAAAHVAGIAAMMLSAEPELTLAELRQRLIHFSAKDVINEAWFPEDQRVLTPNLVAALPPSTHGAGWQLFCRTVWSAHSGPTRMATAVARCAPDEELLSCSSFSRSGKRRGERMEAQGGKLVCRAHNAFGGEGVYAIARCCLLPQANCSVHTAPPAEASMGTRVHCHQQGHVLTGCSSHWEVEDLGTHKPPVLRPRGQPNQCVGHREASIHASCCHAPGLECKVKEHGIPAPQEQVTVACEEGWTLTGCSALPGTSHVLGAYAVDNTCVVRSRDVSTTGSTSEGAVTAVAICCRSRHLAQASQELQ

{"columns": ["Binder", "LDLR Depletion EC50"],
 "data": [
  ["1459D05 (designed binder, also called ATI000891; ATI-891) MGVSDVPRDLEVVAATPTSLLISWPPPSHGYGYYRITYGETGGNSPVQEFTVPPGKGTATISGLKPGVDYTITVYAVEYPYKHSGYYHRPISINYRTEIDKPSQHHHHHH", "> 200 nM"],
  ["1922G04 (designed binder, Anti-PCSK9 Adnectin, His6-tagged; also called ATI001057; ATI-1057) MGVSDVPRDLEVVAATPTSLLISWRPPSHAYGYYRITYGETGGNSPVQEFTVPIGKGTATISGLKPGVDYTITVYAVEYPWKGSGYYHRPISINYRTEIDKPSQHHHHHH", "10 nM"],
  ["2013E01 (designed binder, Anti-PCSK9 Adnectin, His6-tagged, unmodified (not PEGylated); also called ATI001081) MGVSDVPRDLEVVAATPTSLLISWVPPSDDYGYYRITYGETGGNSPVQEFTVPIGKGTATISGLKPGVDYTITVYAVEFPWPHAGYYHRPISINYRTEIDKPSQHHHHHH", "10 nM"],
  ["2011H05 (designed binder, Anti-PCSK9 Adnectin, His6-tagged; also called ATI001091) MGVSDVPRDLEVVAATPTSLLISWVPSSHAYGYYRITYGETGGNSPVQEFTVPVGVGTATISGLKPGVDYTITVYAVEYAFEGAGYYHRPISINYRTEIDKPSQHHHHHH", "12 nM"]
]}
